Collected IC50 values appear next to each entry.
Biological target: human Nav1.8 channels (Homo sapiens, UniProt Q9Y5Y9)
Construct: expressed in transfected cells
Sequence (Q9Y5Y9 whole entry): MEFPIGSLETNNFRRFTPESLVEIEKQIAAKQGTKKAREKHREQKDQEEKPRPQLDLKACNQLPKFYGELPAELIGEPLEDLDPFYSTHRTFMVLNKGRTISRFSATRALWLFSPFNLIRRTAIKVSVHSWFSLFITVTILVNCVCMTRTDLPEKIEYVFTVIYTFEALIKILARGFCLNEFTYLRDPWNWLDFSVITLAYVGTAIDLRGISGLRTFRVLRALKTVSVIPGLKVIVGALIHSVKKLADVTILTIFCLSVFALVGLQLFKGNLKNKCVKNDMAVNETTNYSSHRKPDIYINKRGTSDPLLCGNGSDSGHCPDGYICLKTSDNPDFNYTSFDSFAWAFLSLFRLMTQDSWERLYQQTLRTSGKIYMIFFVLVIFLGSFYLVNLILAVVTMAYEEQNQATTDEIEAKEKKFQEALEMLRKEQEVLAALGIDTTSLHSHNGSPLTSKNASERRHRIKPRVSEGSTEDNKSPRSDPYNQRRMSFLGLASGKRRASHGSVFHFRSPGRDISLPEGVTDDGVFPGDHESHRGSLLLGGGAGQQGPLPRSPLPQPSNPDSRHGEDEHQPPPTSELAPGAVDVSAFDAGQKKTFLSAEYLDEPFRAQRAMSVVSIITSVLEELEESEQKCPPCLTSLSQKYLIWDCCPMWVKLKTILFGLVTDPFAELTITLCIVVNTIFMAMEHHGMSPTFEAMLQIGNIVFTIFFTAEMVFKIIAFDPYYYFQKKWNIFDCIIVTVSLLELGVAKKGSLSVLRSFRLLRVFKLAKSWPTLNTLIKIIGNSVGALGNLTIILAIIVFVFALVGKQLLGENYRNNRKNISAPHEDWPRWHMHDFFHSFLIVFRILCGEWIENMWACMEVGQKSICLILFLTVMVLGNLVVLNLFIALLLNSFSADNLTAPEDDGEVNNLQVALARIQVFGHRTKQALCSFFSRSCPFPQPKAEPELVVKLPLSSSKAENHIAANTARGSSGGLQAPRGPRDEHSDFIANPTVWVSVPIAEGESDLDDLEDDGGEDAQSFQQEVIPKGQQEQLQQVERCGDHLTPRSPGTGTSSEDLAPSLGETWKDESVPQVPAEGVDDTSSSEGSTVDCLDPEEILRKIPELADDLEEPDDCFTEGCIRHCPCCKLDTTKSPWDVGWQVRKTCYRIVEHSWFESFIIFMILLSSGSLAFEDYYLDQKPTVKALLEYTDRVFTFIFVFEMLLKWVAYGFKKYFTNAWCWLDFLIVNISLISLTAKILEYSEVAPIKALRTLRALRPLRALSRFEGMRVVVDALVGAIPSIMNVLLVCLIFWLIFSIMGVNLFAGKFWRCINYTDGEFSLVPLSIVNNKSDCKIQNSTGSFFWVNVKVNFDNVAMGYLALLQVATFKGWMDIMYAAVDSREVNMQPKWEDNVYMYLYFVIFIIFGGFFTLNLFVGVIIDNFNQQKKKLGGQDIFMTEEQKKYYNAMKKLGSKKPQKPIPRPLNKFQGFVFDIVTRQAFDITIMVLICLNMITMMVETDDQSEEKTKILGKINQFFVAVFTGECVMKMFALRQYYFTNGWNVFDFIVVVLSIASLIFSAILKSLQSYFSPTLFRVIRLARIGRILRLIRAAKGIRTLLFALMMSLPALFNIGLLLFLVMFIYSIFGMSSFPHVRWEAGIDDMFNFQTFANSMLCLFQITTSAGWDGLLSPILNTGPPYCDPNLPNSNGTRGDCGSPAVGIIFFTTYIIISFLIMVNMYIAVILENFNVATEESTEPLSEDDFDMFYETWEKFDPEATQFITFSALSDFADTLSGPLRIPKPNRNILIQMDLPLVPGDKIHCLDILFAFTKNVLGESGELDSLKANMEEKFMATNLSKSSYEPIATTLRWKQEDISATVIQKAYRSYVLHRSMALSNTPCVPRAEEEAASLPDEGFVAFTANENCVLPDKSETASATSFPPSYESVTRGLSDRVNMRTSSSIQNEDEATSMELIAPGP
Assay: Nav1.8 Qube automated patch-clamp assay
Assay type: cell-based
Settings: human Nav1.8 stably expressed in HEK 293 cells; whole-cell voltage clamp, room temperature; resting or inactivated state not specified; read-out: IC50 values (nM) for Examples in the Nav1.8 Qube Assay
Experimental: Compounds were tested on human Nav1.8 and Nav1.5 channels stably expressed in human embryo kidney (HEK) 293 cells. […] For all Qube® experiments offline analysis was used to determine percent inhibition as a function of drug concentration. IC50 values were determined by fitting to the Hill equation.
The reply should contain only the number, in nM.

# input molecule: NS(=O)(=O)c1cc(NC(=O)c2cc(C(F)(F)F)cnc2N2CCC3OCCC32)ccn1 (stereo not shown) ; wanted: its IC50
1620

# input molecule: Cc1nc(N2CCCC(F)(F)CC2)c(C(=O)N(C)c2ccnc(S(N)(=O)=O)c2)c(C)c1Cl ; wanted: its IC50
347

# input molecule: NC(=O)c1cncc(NC(=O)c2cc(C(F)(F)F)cnc2N2CCCCCC2)c1 ; wanted: its IC50
2350

# input molecule: NS(=O)(=O)c1cc(NC(=O)c2cc(C(F)(F)F)cnc2N2CCC3C(C2)C3(F)F)ccn1 (single isomer, unassigned) [Example 70] ; wanted: its IC50
41

# input molecule: Cc1nc(N2CCC(F)(F)C(C)C2)c(C(=O)Nc2ccnc(S(N)(=O)=O)c2)cc1Cl (single isomer, unassigned) [Example 54] ; wanted: its IC50
2.1

# input molecule: Cc1nc(N2CCOC(C(F)F)CC2)c(C(=O)Nc2ccnc(S(N)(=O)=O)c2)cc1Cl (single isomer, unassigned) [Example 117] ; wanted: its IC50
18

# input molecule: O=C(O)c1cc(NC(=O)c2cc(C(F)(F)F)cnc2N2CCC(F)(F)CC2)ccn1 ; wanted: its IC50
5430
